These measurements were taken from patent US20190307754A1.

test system: PDE1; test: PDE1 inhibition assay; assay type: biochemical
For each record, write down the corresponding pIC50.
Value format note: pIC50 is -log10 of concentration (mol/L); just state the number.

-- ask For the compound shown here, C[C@@H]1CN(Cc2ncccn2)C[C@H]1c1cn2c(C3CCOCC3)ncc2c(=O)[nH]1 (single isomer, unassigned) [Compound P3.1] , give the reported pIC50.
-- reply 5.52

-- ask For the compound shown here, C[C@@H]1CN(Cc2ncccn2)C[C@H]1c1nc2c(cnn2C2CCOCC2)c(=O)[nH]1 (single isomer, unassigned) [AF27873] , give the reported pIC50.
-- reply 5.60

====

assay: in vivo; type: in vivo; details: rat, in vivo, 1000 mg/kg; read-out: plasma exposure (AUC0-24)
readout: AUC(0-t)

-- ask For the compound shown here, C[C@@H]1CN(Cc2ncccn2)C[C@H]1c1cn2c(C3CCOCC3)ncc2c(=O)[nH]1 (single isomer, unassigned) , give the reported AUC(0-t).
-- reply > 500 µg·h/mL

====

experiment: Blood Brain Barrier penetration (brain-to-plasma distribution); assay type: in vivo; settings: mouse, brain, sc; male CD mice, 10 mg/kg subcutaneous, 30 min; read-out: Brain/Plasma ratio after 30 minutes
readout: Kp at 0.5 h

-- ask For the molecule shown here, C[C@@H]1CN(Cc2ncccn2)C[C@H]1c1cn2c(C3CCOCC3)ncc2c(=O)[nH]1 (single isomer, unassigned) [Compound P3.1] , give the reported Kp at 0.5 h.
-- reply 0.04

====

assay: Fourteen-day repeat-dose toxicity study in beagle dogs; format: in vivo, dog; conditions: male, beagle, dog, in vivo, po, 10 mg, dog, males, 10 mg, Day 1; read-out: AUC0-24
readout: AUC(0-t) (ng·h/mL)
Write the number in ng·h/mL without appending the unit.

-- ask For the compound shown here, C[C@@H]1CN(Cc2ncccn2)C[C@H]1c1cn2c(C3CCOCC3)ncc2c(=O)[nH]1 (single isomer, unassigned) [Compound P3.1] , give the reported AUC(0-t).
-- reply 29700

====

experiment: Fourteen-day repeat-dose toxicity study in beagle dogs; format: in vivo, dog; conditions: female, beagle, dog, in vivo, po, 75 mg/kg/day, dog, females, 75 mg, Day 14; read-out: AUC0-24
readout: AUC(0-t) (µg·h/mL)
Write the number in µg·h/mL without appending the unit.

-- ask For the compound shown here, C[C@@H]1CN(Cc2ncccn2)C[C@H]1c1cn2c(C3CCOCC3)ncc2c(=O)[nH]1 (single isomer, unassigned) [Compound P3.1] , give the reported AUC(0-t).
-- reply 224

====

readout: pIC50
Value format note: pIC50 is -log10 of concentration (mol/L); just state the number.

-- ask Enter reported pIC50 observed with PDE9 (Homo sapiens) for C[C@@H]1CN(Cc2ncccn2)C[C@H]1c1cn2c(C3CCOCC3)ncc2c(=O)[nH]1 (single isomer, unassigned) [Compound P3.1]
Sequence (O76083 whole entry): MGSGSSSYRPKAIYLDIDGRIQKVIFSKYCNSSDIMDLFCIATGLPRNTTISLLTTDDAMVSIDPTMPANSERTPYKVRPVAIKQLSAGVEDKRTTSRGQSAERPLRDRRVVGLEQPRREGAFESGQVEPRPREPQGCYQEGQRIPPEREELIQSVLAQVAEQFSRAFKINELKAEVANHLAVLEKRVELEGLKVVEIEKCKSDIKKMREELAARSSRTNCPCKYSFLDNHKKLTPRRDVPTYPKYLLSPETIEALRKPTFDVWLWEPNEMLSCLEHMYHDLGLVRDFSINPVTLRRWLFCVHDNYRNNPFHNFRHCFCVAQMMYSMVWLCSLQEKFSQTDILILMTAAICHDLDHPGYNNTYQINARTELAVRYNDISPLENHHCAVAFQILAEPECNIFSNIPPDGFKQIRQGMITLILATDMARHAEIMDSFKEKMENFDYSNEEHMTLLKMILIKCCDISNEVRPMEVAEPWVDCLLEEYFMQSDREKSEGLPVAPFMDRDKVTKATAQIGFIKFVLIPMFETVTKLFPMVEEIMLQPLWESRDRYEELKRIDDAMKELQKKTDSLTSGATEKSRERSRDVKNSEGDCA
-- reply 7.31

====

test: Pharmacokinetics of single oral and IV dose in Sprague Dawley rats; assay type: in vivo; conditions: rat, blood; Sprague Dawley rats, 3 mg/kg IV
readout: C0 (ng/mL)
Write the number in ng/mL without appending the unit.

-- ask For the molecule shown here, C[C@@H]1CN(Cc2ncccn2)C[C@H]1c1cn2c(C3CCOCC3)ncc2c(=O)[nH]1 (single isomer, unassigned) [Compound P3.1] , give the reported C0.
-- reply 4820
